Provide the recorded growth for the entries that follow.
Tested on: SK-MEL-28 melanoma
method.description: NCI-60 one-dose screen, 48 h (100 = growth as untreated, 0 = no growth, -100 = all killed)
details: 10 µM
This is part of a sample that, as a whole, favours compounds with a hit. Of some 83,000 tested, about 20% had one in any assay.
All answers are understood in %, so give the number only.

-- ask Could you tell me which growth is on file for COc1ccc(-c2nsc3c2NC(=O)CC3c2cccc(OC)c2)cc1 (stereo not given) ?
-- reply 45.3

-- ask Could you tell me which growth is on file for "COC(=O)/C(=C\c1c(C)[nH]c2ccccc12)S(=O)(=O)c1ccccc1" ?
-- reply 16.6

-- ask Could you tell me which growth is on file for "Cc1ccc(C(=O)c2oc3ccc4c(C)cc(=O)oc4c3c2C)cc1" ?
-- reply 51.4

-- ask Could you tell me which growth is on file for "O=NN(Cc1cccnc1)C(=O)NC1CCCCC1" ?
-- reply 104

-- ask Could you tell me which growth is on file for "O=C(c1ccccc1)N(CCc1ccc(Cl)cc1)C(=S)N(C(=O)c1ccccc1)c1ccccc1" ?
-- reply 119

-- ask Could you tell me which growth is on file for "O=Cc1c(OCc2cnnn2CC(=O)Nc2ccc(Br)cc2)ccc2ccccc12" ?
-- reply 99.9

-- ask Could you tell me which growth is on file for COc1cc(C2CC(c3ccc(Nc4nc(NCCO)nc(N5CCOCC5)n4)cc3)=NN2c2cc(Cl)cc(Cl)c2)cc(OC)c1OC (stereo not given) ?
-- reply 72.8

-- ask Could you tell me which growth is on file for "C#CCn1cc(C=C2C(=O)N(C)C(=O)N(C)C2=O)c2cc(Cl)ccc21" ?
-- reply 113

-- ask Could you tell me which growth is on file for O=C(NC1CCCCC1)C(c1cccs1)N(CCc1ccccc1)C(=O)c1ccco1 (stereo not given) ?
-- reply 105

-- ask Could you tell me which growth is on file for "CCOC(=O)c1ccc2[nH]c(-c3ccccc3)cc(=O)c2c1" ?
-- reply 109

###

Test system: OVCAR-3 ovarian
method.description: NCI-60 one-dose screen, 48 h (100 = growth as untreated, 0 = no growth, -100 = all killed)
details: 10 µM unless noted
The panel holds about 83,000 compounds, 20% with a hit somewhere; the sample as a whole holds those more often.
growth strictly less than 80% = Satisfied. Otherwise Not satisfied.

-- ask hey, is growth for "O=c1oc2ccc(Cl)cc2c(=O)n1-c1ccc(Cl)cc1F" lower than 80% or not?
-- reply Satisfied

-- ask hey, is growth for "O=C1/C(=C\c2ccc[nH]2)c2ccccc2N1c1ccccc1" lower than 80% or not?
-- reply Not satisfied

-- ask hey, is growth for "COc1ccc(OC)c(NC(=O)/C(C#N)=C/c2ccco2)c1" lower than 80% or not?
-- reply Not satisfied

-- ask hey, is growth for COc1ccc(CCN2C(=O)/C(=C/c3ccc(C4Oc5ccccc5C5CC(c6cccc(OC)c6)=NN54)cc3)SC2=S)cc1 (stereo not given) lower than 80% or not?
-- reply Not satisfied

-- ask hey, is growth for CCN1C(=O)N(CC)C2C1NC(=S)N2/N=C/C=C/c1ccccc1OC (stereo not given) lower than 80% or not?
-- reply Satisfied

-- ask hey, is growth for "Cc1ccc2c(n1)C(=O)C(Oc1ccc(Br)cc1)=CC2=O" lower than 80% or not?
-- reply Not satisfied

-- ask hey, is growth for "CCN(CC)c1cc(C)c2cc(NC(=O)c3cccc(OC)c3)ccc2n1" lower than 80% or not?
-- reply Satisfied

-- ask hey, is growth for "Cc1cc2c(c(C)c1Cl)C(=O)/C(=C/c1ccco1)O2" lower than 80% or not?
-- reply Not satisfied

-- ask hey, is growth for Cc1ccc(C2CC(c3ccc(Nc4nc(NCCO)nc(Nc5ccc(Cl)cc5)n4)cc3)=NN2c2cc(Cl)cc(Cl)c2)cc1 (stereo not given) lower than 80% or not?
-- reply Not satisfied

-- ask hey, is growth for "COC(=O)c1c2c(c(C)[n+]([O-])c1C)C(=O)C=C(NCc1ccccc1)C2=O" lower than 80% or not?
-- reply Satisfied
